Target: Ros(h) (Homo sapiens, UniProt P08922)
Sequence (P08922 28-2347): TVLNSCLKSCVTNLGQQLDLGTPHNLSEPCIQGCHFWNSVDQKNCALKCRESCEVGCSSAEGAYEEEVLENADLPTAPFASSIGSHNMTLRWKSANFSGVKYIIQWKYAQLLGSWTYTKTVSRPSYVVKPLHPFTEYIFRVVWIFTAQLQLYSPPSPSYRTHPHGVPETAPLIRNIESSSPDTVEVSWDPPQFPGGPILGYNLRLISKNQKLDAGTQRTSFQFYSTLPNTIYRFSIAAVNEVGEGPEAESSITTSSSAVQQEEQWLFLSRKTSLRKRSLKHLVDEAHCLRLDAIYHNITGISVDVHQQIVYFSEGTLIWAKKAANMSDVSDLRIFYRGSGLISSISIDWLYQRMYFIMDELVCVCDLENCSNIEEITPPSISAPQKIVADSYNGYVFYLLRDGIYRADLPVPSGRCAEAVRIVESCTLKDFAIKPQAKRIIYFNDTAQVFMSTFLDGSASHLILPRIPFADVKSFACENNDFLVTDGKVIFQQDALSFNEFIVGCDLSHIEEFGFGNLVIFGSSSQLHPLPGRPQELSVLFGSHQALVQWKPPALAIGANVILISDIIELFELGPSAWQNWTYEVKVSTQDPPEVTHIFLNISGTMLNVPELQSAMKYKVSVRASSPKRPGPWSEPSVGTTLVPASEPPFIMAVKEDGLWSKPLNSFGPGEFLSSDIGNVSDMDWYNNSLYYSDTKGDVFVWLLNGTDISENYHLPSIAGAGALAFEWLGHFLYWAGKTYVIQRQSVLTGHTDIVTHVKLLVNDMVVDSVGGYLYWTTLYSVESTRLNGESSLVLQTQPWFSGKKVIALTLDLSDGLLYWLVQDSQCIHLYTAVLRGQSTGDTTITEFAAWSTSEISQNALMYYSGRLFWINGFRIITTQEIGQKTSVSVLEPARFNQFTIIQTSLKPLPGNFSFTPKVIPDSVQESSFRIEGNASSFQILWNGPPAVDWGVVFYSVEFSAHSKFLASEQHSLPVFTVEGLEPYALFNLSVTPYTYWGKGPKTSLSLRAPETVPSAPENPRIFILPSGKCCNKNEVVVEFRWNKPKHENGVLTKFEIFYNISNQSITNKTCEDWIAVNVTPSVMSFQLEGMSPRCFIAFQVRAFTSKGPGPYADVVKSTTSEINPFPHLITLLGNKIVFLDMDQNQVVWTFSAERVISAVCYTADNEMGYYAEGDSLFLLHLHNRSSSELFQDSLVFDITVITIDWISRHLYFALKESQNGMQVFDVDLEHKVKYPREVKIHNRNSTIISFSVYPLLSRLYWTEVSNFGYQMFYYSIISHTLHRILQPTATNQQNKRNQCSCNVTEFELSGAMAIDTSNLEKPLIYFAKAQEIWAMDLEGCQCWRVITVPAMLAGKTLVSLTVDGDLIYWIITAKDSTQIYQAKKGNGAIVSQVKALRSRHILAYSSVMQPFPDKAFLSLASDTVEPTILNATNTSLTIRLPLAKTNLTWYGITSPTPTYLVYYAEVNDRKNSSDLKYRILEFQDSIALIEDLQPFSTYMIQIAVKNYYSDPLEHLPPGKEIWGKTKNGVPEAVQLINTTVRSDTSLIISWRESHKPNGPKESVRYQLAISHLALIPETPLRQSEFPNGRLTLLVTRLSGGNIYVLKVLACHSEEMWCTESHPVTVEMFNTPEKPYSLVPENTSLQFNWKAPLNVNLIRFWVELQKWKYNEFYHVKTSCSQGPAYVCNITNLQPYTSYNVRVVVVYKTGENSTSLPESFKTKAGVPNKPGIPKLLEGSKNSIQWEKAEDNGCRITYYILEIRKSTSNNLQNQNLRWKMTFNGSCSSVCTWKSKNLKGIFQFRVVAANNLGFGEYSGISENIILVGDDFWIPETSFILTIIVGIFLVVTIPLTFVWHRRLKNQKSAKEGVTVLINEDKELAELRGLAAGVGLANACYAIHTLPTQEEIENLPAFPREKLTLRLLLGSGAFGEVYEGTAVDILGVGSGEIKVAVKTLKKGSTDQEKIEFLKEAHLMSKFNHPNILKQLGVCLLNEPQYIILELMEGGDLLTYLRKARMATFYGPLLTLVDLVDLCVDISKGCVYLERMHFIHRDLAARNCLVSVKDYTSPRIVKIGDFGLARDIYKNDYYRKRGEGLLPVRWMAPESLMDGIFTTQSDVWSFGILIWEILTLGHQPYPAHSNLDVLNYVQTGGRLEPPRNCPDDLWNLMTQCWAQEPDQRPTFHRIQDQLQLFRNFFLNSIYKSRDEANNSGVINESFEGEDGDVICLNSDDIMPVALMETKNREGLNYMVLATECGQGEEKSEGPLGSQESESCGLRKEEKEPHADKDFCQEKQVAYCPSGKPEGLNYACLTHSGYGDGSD
propertyLabel: IC50 (nM)
Quick reminder: number only, in nM, skip the unit.

Identify the measured IC50 of C=CC(=O)Nc1cc(Nc2nccc(-c3c4n(c5ccccc35)CCCC4)n2)c(OC)cc1N(C)CCNC for Ros(h) (Homo sapiens, UniProt P08922).
47

====

Target: ACK1(h) (Homo sapiens)
Sequence (Q07912 whole entry): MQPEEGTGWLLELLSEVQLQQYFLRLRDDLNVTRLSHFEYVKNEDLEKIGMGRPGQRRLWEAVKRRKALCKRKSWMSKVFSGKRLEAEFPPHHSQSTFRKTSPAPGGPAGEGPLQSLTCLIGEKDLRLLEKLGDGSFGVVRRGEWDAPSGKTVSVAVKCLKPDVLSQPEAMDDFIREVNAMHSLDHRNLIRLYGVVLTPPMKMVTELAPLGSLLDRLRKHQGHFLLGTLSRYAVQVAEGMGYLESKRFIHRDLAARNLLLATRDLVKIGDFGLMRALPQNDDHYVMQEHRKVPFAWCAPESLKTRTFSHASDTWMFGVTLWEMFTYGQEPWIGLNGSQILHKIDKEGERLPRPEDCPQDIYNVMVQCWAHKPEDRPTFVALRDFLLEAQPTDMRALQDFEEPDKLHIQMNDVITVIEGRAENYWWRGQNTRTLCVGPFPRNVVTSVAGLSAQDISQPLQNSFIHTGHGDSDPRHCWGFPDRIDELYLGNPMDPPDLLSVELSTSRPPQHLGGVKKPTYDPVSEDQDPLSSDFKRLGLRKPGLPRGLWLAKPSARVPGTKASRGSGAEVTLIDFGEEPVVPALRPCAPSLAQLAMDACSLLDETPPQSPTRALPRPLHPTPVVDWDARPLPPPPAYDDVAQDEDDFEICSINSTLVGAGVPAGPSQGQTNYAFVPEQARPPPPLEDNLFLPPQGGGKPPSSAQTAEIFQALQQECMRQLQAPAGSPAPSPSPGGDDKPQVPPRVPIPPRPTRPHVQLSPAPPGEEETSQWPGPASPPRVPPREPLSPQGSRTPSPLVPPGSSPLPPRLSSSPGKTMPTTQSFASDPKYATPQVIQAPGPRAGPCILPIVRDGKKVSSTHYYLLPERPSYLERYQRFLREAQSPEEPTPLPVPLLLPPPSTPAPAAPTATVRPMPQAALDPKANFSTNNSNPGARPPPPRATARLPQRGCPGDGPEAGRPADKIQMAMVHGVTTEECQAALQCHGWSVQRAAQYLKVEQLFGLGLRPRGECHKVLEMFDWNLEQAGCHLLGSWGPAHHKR
propertyLabel: pIC50
Quick note: pIC50 values are minus log10 of concentrations in mol/L.

# get_value(readout= pIC50, system= ACK1(h) (Homo sapiens)) for C=CC(=O)Nc1cc(Nc2nccc(-c3c4n(c5ccccc35)CCCC4)n2)c(OC)cc1N(C)CCN(C)C
7.07
